Consider the following compounds; for each one, report its Activity.
Test system: Mus musculus
method description: Toxicity in FVB mouse assessed as calcium level in blood at 1200 pmol/day administered via osmotic pump for 6 to 7 days measured on day 7 by microchemistry (RVb = […] mmol/L)
Type: organism-based
study conditions: in vivo, other
Please give a number only; it is taken to be in mmol/L.

input: State its Activity on Mus musculus: "C[C@H](CCCCNS(=O)(=O)c1ccccc1)[C@H]1CC[C@H]2/C(=C/C=C3C[C@@H](O)C[C@H](O)C3)CCC[C@]12C"
output: 2.07

input: State its Activity on Mus musculus: "CCCCS(=O)(=O)NCCCC[C@@H](C)[C@H]1CC[C@H]2/C(=C/C=C3C[C@@H](O)C[C@H](O)C3)CCC[C@]12C"
output: 1.99

input: State its Activity on Mus musculus: "C[C@H](CCCCC(=O)Nc1ccccc1N)[C@H]1CC[C@H]2/C(=C/C=C3C[C@@H](O)C[C@H](O)C3)CCC[C@]12C"
output: 2.09

input: State its Activity on Mus musculus: "C[C@H](CCCCNC(=O)CS)[C@H]1CC[C@H]2/C(=C/C=C3C[C@@H](O)C[C@H](O)C3)CCC[C@]12C"
output: 2.04

###

Tested on: Mus musculus
method description: Toxicity in FVB mouse assessed as calcium level in blood at 1200 pmol/day administered via osmotic pump for 6 to 7 days measured on day 4 by microchemistry (RVb = 2.11 mmol/L)
Type: organism-based
study conditions: in vivo, other
Consider the following compounds; for each one, report its Activity.
Please give a number only; it is taken to be in mmol/L.

input: Recorded Activity of "CCCCS(=O)(=O)NCCCC[C@@H](C)[C@H]1CC[C@H]2/C(=C/C=C3C[C@@H](O)C[C@H](O)C3)CCC[C@]12C" , please.
output: 2.12

input: Recorded Activity of "C[C@H](CCCCNC(=O)CS)[C@H]1CC[C@H]2/C(=C/C=C3C[C@@H](O)C[C@H](O)C3)CCC[C@]12C" , please.
output: 2

input: Recorded Activity of "C[C@H](CCCCC(=O)Nc1ccccc1N)[C@H]1CC[C@H]2/C(=C/C=C3C[C@@H](O)C[C@H](O)C3)CCC[C@]12C" , please.
output: 2.04

input: Recorded Activity of "C[C@H](CCCCNS(=O)(=O)c1ccccc1)[C@H]1CC[C@H]2/C(=C/C=C3C[C@@H](O)C[C@H](O)C3)CCC[C@]12C" , please.
output: 2.03

###

# collection of IC50 values tested on Protein deacetylase HDAC6 (Homo sapiens, UniProt Q9UBN7)
# Sequence (Q9UBN7 whole entry): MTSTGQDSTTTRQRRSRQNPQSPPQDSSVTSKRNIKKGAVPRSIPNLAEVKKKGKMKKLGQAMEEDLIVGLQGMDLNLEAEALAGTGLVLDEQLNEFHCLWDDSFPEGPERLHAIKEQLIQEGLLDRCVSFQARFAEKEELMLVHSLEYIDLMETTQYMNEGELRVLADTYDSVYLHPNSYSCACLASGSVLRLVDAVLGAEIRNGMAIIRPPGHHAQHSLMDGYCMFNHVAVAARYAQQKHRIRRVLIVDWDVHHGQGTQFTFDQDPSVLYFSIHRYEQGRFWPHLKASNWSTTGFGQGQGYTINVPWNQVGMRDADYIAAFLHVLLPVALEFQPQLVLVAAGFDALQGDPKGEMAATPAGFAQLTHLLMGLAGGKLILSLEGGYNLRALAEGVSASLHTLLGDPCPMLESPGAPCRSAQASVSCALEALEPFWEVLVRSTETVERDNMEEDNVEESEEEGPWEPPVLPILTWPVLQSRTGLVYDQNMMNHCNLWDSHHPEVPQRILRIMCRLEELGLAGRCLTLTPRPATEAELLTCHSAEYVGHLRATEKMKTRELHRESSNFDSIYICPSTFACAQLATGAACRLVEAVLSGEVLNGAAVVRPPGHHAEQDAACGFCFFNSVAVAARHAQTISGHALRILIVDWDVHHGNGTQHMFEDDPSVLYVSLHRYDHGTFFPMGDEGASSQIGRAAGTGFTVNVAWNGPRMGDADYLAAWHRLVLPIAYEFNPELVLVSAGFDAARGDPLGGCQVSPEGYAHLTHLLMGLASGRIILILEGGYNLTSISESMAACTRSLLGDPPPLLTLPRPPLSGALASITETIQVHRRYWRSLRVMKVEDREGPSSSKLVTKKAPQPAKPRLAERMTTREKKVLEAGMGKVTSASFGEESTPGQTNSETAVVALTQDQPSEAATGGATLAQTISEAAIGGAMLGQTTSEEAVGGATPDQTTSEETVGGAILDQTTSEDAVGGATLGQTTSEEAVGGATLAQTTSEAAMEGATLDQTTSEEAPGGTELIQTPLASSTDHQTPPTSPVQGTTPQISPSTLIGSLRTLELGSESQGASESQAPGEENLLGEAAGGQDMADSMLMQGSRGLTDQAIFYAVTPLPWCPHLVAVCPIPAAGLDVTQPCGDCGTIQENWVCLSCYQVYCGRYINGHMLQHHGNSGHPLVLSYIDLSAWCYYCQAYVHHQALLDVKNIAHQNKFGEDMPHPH
Answer format: value, then unit.

input: Recorded IC50 of "C[C@H](CCCCNS(=O)(=O)C(F)(F)F)[C@H]1CC[C@H]2/C(=C/C=C3C[C@@H](O)C[C@H](O)C3)CCC[C@]12C" , please.
output: 153 µM

input: Recorded IC50 of "CNC(=O)C(=O)CCCC[C@@H](C)[C@H]1CC[C@H]2/C(=C/C=C3C[C@@H](O)C[C@H](O)C3)CCC[C@]12C" , please.
output: 64 µM

input: Recorded IC50 of CC(/C=C/C(=O)NO)=C\[C@@H](C)[C@H]1CC[C@H]2/C(=C/C=C3\C[C@@H](O)C[C@@H](O)C3)CCC[C@]12C [TRICIFEROL] , please.
output: 0.58 µM

input: Recorded IC50 of "C[C@H](CCCCNC(=O)CS)[C@H]1CC[C@H]2/C(=C/C=C3C[C@@H](O)C[C@H](O)C3)CCC[C@]12C" , please.
output: 1.75 µM

input: Recorded IC50 of "C[C@H](CCCC(=O)Nc1ccccc1N)[C@H]1CC[C@H]2/C(=C/C=C3C[C@@H](O)C[C@H](O)C3)CCC[C@]12C" , please.
output: 330 µM

input: Recorded IC50 of "C[C@H](CCCNS(C)(=O)=O)[C@H]1CC[C@H]2/C(=C/C=C3C[C@@H](O)C[C@H](O)C3)CCC[C@]12C" , please.
output: 71.3 µM

###

Tested on: Mus musculus
method description: Toxicity in FVB mouse assessed as calcium level in blood at 1200 pmol/day administered via osmotic pump for 6 to 7 days measured on day 6 by microchemistry (RVb = 2 mmol/L)
Type: organism-based
study conditions: in vivo, other
recorded endpoint: Activity (mmol/L)
Please give a number only; it is taken to be in mmol/L.

input: Recorded Activity of "C[C@H](CCCCNS(C)(=O)=O)[C@H]1CC[C@H]2/C(=C/C=C3C[C@@H](O)C[C@H](O)C3)CCC[C@]12C" , please.
output: 1.92

input: Recorded Activity of "C[C@H](CCCC(=O)Nc1ccccc1N)[C@H]1CC[C@H]2/C(=C/C=C3C[C@@H](O)C[C@H](O)C3)CCC[C@]12C" , please.
output: 2.14

input: Recorded Activity of "C[C@H](CCCCC(=O)NO)[C@H]1CC[C@H]2/C(=C/C=C3C[C@@H](O)C[C@H](O)C3)CCC[C@]12C" , please.
output: 2.26

input: Recorded Activity of "CC(/C=C/C(=O)NO)=C\[C@@H](C)[C@H]1CC[C@H]2/C(=C/C=C3\C[C@@H](O)C[C@@H](O)C3)CCC[C@]12C" , please.
output: 2.08

###

Consider the following compounds; for each one, report its Activity.
System: Mus musculus
method description: Toxicity in FVB mouse assessed as calcium level in blood at 240 pmol/day administered via osmotic pump for 6 to 7 days measured on day 3 by microchemistry (RVb = 2.24 mmol/L)
Type: organism-based
study conditions: in vivo, other
Please give a number only; it is taken to be in mmol/L.

input: Recorded Activity of CC(/C=C/C(=O)NO)=C\[C@@H](C)[C@H]1CC[C@H]2/C(=C/C=C3\C[C@@H](O)C[C@@H](O)C3)CCC[C@]12C [TRICIFEROL] , please.
output: 2.11

input: Recorded Activity of "C[C@H](CCCCNS(C)(=O)=O)[C@H]1CC[C@H]2/C(=C/C=C3C[C@@H](O)C[C@H](O)C3)CCC[C@]12C" , please.
output: 1.88

input: Recorded Activity of "C[C@H](CCCC(=O)Nc1ccccc1N)[C@H]1CC[C@H]2/C(=C/C=C3C[C@@H](O)C[C@H](O)C3)CCC[C@]12C" , please.
output: 1.89

input: Recorded Activity of "C[C@H](CCCCC(=O)NO)[C@H]1CC[C@H]2/C(=C/C=C3C[C@@H](O)C[C@H](O)C3)CCC[C@]12C" , please.
output: 1.93

###

System: Mus musculus
method description: Toxicity in FVB mouse assessed as calcium level in blood at 240 pmol/day administered via osmotic pump for 6 to 7 days measured on day 6 by microchemistry (RVb = 2 mmol/L)
Format: organism-based
study conditions: in vivo, other
recorded endpoint: Activity
Answer format: value, then unit.

input: State its Activity on Mus musculus: "C[C@H](CCCC(=O)Nc1ccccc1N)[C@H]1CC[C@H]2/C(=C/C=C3C[C@@H](O)C[C@H](O)C3)CCC[C@]12C"
output: 2.05 mmol/L

input: State its Activity on Mus musculus: "C[C@H](CCCCC(=O)NO)[C@H]1CC[C@H]2/C(=C/C=C3C[C@@H](O)C[C@H](O)C3)CCC[C@]12C"
output: 1.93 mmol/L

input: State its Activity on Mus musculus: CC(/C=C/C(=O)NO)=C\[C@@H](C)[C@H]1CC[C@H]2/C(=C/C=C3\C[C@@H](O)C[C@@H](O)C3)CCC[C@]12C [TRICIFEROL]
output: 2.03 mmol/L

input: State its Activity on Mus musculus: "C[C@H](CCCCNS(C)(=O)=O)[C@H]1CC[C@H]2/C(=C/C=C3C[C@@H](O)C[C@H](O)C3)CCC[C@]12C"
output: 2.22 mmol/L

###

Consider the following compounds; for each one, report its IC50.
Please give a number only; it is taken to be in µM.

input: State its IC50 on Histone deacetylase 2 (Homo sapiens): "CNC(=O)C(=O)CCCC[C@@H](C)[C@H]1CC[C@H]2/C(=C/C=C3C[C@@H](O)C[C@H](O)C3)CCC[C@]12C"
Sequence (Q92769 whole entry): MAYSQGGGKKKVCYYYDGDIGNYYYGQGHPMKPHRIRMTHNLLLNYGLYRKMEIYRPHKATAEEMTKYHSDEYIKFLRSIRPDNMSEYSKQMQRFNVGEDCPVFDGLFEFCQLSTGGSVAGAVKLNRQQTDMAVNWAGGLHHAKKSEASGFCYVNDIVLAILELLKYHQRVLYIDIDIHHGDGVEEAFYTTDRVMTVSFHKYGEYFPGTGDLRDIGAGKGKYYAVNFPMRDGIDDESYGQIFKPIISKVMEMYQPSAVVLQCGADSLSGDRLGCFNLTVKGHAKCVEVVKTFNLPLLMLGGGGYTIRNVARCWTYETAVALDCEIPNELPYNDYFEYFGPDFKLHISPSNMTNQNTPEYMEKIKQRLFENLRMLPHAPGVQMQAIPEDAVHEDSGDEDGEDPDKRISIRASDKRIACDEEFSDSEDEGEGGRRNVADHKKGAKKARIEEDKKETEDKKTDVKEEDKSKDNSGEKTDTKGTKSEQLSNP
output: 90.4

input: State its IC50 on Histone deacetylase 2 (Homo sapiens): "C[C@H](CCCCC(=O)Nc1ccccc1N)[C@H]1CC[C@H]2/C(=C/C=C3C[C@@H](O)C[C@H](O)C3)CCC[C@]12C"
output: 189

input: State its IC50 on Histone deacetylase 2 (Homo sapiens): "CC(/C=C/C(=O)NO)=C\[C@@H](C)[C@H]1CC[C@H]2/C(=C/C=C3\C[C@@H](O)C[C@@H](O)C3)CCC[C@]12C"
output: 10.4

input: State its IC50 on Histone deacetylase 2 (Homo sapiens): "C[C@H](CCCCNC(=O)CS)[C@H]1CC[C@H]2/C(=C/C=C3C[C@@H](O)C[C@H](O)C3)CCC[C@]12C"
output: 96.3
